Values were extracted from patent US20230021448A1.

A collection of compounds and their measured EC50
Target: STING (Homo sapiens, UniProt Q86WV6, G230A/H232R/R293Q/R71H)
Construct: host or cells: THP1-Dual KO-IFNAR2 cells
Sequence (Q86WV6 whole entry R71H/G230A/H232R/R293Q): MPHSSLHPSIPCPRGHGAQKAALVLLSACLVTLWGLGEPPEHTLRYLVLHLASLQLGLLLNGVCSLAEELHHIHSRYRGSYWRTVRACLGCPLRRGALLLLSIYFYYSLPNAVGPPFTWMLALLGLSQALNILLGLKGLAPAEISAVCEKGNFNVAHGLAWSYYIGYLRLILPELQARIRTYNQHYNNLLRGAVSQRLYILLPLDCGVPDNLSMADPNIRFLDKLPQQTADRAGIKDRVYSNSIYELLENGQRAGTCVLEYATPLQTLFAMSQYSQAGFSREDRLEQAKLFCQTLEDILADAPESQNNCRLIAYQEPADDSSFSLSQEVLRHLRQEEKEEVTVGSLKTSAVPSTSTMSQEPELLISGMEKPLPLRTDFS
Experiment: STING reporter assay: luciferase reporter activity in THP1-Dual KO-IFNAR2 cells stimulated with 2'3'cGAMP
Type: cell-based
Details: 2′3′cGAMP 15 μM final, 24h, read-out: hSTING: EC50

# count of solved cases: 3
INSERT INTO assay_data (compound, readout_kind, reported_value) VALUES
  ('O=C(NCC1COc2ccccc2O1)C(=O)Nc1c[nH]c2cc(F)c(F)cc12 (centres unmarked)', 'EC50', '0.2 to 1 µM'),
  ('CC(CNC(=O)C(=O)Nc1c[nH]c2cc(F)c(F)cc12)Oc1ccc(C(F)(F)F)cc1 (centres unmarked)', 'EC50', '0.2 to 1 µM'),
  ('O=C(Nc1ccc(C(F)(F)F)c(Cl)c1)C(=O)Nc1c[nH]c2cc(F)c(F)cc12', 'EC50', '0.2 to 1 µM');

Exercise: Supply recorded EC50 for CC(CN(C)c1ccccc1)NC(=O)C(=O)Nc1c[nH]c2cc(F)c(F)cc12 (single isomer, unassigned) [Compound 320] here.
Key: 0.2 to 1 µM

Exercise: Supply recorded EC50 for O=C(NCCOc1ccc(C(F)(F)F)cc1)C(=O)Nc1c[nH]c2cc(F)c(F)cc12 here.
Key: 0.2 to 1 µM

Exercise: Supply recorded EC50 for Cc1ccc(CNC(=O)C(=O)Nc2c[nH]c3ccc(-c4cccc(CO)c4)cc23)cc1C(F)(F)F here.
Key: 0.2 to 1 µM

Exercise: Supply recorded EC50 for O=C(Nc1c[nH]c2ccc(Cl)cc12)C(=O)N[C@H]1C[C@H](Nc2ccccn2)C1 here.
Key: 1 to 5 µM

Exercise: Supply recorded EC50 for O=C(Nc1c[nH]c2cc(F)c(F)cc12)C(=O)N1CCCC(Oc2ccc(C(F)(F)F)cc2)C1 (centres unmarked) here.
Key: 0.2 to 1 µM

Exercise: Supply recorded EC50 for O=C(NCCc1cccc(C(F)(F)F)c1)C(=O)Nc1c[nH]c2cc(F)c(F)cc12 here.
Key: 0.2 to 1 µM

Exercise: Supply recorded EC50 for O=C(NCC(C(F)F)C1CCCCC1)C(=O)Nc1c[nH]c2cc(F)c(F)cc12 (centres unmarked) here.
Key: 0.2 to 1 µM

Exercise: Supply recorded EC50 for O=C(Nc1c[nH]c2cc(F)c(F)cc12)C(=O)N[C@H]1CC[C@H](Nc2ccccn2)CC1 here.
Key: 5 to 100 µM

Exercise: Supply recorded EC50 for O=C(NCC(=O)N1CCc2ccccc21)C(=O)Nc1c[nH]c2cc(F)c(F)cc12 here.
Key: 0.2 to 1 µM
